molecular target: GS-TAP-tagged Optn (human) (UniProt Q96CV9); assay: TAP of GS-tagged Optn from HEK-293 cells, LC-MSMS
Sequence (Q96CV9 whole entry E322K): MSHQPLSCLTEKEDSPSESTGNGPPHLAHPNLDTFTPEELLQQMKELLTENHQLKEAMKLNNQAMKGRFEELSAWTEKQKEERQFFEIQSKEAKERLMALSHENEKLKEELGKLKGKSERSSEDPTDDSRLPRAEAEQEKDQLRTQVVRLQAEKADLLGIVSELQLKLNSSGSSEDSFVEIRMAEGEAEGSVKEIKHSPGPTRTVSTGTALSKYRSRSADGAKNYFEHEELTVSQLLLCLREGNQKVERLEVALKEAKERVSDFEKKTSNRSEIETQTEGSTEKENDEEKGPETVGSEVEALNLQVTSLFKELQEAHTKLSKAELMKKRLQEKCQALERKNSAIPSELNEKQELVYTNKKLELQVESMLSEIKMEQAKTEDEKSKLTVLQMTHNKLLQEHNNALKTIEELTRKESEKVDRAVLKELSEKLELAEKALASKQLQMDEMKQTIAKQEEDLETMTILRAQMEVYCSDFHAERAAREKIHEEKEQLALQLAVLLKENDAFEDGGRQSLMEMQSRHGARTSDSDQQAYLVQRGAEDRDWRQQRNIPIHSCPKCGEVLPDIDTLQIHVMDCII
test.readout: sequence coverage

[in] Check the records and state sequence coverage for ISOFORM 1 OF MYOSIN IB. (from UniProt O43795 1-1136)
[out] 0.03

(I) ISOFORM LONG OF SPECTRIN BETA CHAIN, BRAIN 1. (from UniProt Q01082 2-2364)
(II) FILAMIN 1. (from UniProt P21333 2-2647)
[in] Which record shows the lower sequence coverage: the first, I , or the second, II ? API: response body contains the label of the selected item.
[out] I
(I: 0.01, II: 0.05)

(I) ELONGATION FACTOR 1-ALPHA 2. (from UniProt Q05639 2-463)
(II) CORONIN-1C. (from UniProt Q9ULV4 1-474)
[in] I'm curious, which of these has a smaller sequence coverage number: I or II ? // caller expects the label of the chosen entry
[out] I

(P) PRKC APOPTOSIS WT1 REGULATOR PROTEIN. (from UniProt Q96IZ0 1-340)
(Q) DYNEIN LIGHT CHAIN 1, CYTOPLASMIC. (from UniProt P63167 1-89)
[in] For the two items P and Q , which reports the higher sequence coverage value? # answer = label of selected item
[out] Q
(Q: 0.64, P: 0.09)

(A) ALPHA-ACTININ-4. (from UniProt O43707 1-911)
(B) 285 KDA PROTEIN. (from UniProt Q13813 1-2472)
[in] Which shows the larger sequence coverage value: A or B ? API: response body contains the label of the selected item.
[out] B

(P) ISOFORM SNAP-23A OF SYNAPTOSOMAL-ASSOCIATED PROTEIN 23. (from UniProt O00161 1-211)
(Q) TROPOMYOSIN 1 ALPHA CHAIN ISOFORM 7. (from UniProt P09493 1-284)
[in] Which gives the smaller sequence coverage number: P or Q ? Bench note: the answer is the label of the chosen record.
[out] P

(1) HEAT SHOCK 70 KDA PROTEIN 6. (from UniProt P17066 1-643)
(2) GUANINE NUCLEOTIDE-BINDING PROTEIN G(I)/G(S)/G(T) SUBUNIT BETA 2. (from UniProt P62879 2-340)
[in] # argmax over sequence coverage for candidates 1 and 2 Please respond with the label that marks your chosen entry.
[out] 1

(P) RAS-RELATED PROTEIN RAB-35. (from UniProt Q15286 1-201)
(Q) HEAT SHOCK 70 KDA PROTEIN 1. (from UniProt P0DMV9 2-641)
(R) PEROX1REDOXIN-1. (from UniProt Q06830 2-199) (enzyme)
(S) MYOSIN-9. (from UniProt P35579 2-1960)
[in] Put the items in order so that reported sequence coverage rises from first to last. Please list each label once, in the requested order.
[out] S, R, P, Q

(I) ISOFORM 2 OF ANKYCORBIN. (from UniProt Q9P0K7 1-983)
(II) GUANINE NUCLEOTIDE-BINDING PROTEIN G. (from UniProt P08754 2-354)
[in] // pick min by sequence coverage: I , II Indicate which entry you chose by stating its label.
[out] I
(I: 0.12, II: 0.19)
